# Target desc: Ba/F3 (EGFR^del19/T790M/C797S) triple-mutant cells (Homo sapiens, UniProt P00533, T790M/C797S, cells depend on it, form not given)
# Sequence (P00533 with tags, fused parts or gaps DEL746-750/T790M/C797S, form open): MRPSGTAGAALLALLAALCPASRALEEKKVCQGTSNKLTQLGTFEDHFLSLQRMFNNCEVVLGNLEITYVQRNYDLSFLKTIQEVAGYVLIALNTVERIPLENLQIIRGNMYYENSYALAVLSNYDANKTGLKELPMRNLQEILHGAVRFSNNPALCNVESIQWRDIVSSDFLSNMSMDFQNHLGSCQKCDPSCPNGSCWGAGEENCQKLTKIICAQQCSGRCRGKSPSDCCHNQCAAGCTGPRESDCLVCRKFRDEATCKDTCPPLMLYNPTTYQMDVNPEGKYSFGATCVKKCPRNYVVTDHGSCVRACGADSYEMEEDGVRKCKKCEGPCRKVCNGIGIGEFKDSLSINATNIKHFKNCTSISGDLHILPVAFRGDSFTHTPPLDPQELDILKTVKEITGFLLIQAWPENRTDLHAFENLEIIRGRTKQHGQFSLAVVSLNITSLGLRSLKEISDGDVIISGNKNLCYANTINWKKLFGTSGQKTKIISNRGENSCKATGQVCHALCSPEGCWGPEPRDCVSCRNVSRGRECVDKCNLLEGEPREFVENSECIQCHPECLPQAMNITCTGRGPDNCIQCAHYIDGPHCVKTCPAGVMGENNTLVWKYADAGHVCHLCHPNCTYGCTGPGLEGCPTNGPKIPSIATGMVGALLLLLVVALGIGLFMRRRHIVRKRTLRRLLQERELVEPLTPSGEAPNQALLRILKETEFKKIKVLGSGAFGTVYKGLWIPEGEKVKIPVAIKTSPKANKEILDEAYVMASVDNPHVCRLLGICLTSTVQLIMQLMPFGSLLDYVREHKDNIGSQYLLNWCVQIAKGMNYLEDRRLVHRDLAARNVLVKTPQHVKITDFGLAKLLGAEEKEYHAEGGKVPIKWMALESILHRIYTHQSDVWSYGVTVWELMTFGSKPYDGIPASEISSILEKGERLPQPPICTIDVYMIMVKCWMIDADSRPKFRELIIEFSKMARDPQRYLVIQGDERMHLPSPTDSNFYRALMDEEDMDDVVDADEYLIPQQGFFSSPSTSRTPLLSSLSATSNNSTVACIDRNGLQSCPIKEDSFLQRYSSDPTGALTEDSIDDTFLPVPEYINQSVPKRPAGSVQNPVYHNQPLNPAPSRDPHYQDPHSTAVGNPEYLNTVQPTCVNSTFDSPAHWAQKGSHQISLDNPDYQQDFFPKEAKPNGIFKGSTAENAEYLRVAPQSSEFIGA
# Method notes: Antiproliferative activity against Ba/F3 (EGFR del19/T790M/C797S) triple-mutant cells, Cell Titer Glow
# Type: cell-based
# Conditions: three days after addition of compounds; read-out: Antiproliferative activity BaF3(EGFR^del19/T790M/C797S) IC50
Value type: GI50 (nM)
# unit: nM | format: bare number

Prompt: Query (compound): CC(C)Nc1nc(Nc2ccc(N3CCC(N4CCN(C)CC4)CC3)cc2)c(C(N)=O)nc1-c1cccc2[nH]ccc12 ; field requested: GI50
Response: 4

Prompt: Query (compound): CN1CCN(C2CCN(c3ccc(Nc4nc(NC5CCOCC5)c(-c5cn[nH]c5)nc4C(N)=O)cc3)CC2)CC1 ; field requested: GI50
Response: 79

Prompt: Query (compound): CO[C@H]1C[C@H](Nc2nc(Nc3ccc(N4CCC(N5CCN(C)CC5)CC4)cc3)c(C(N)=O)nc2-c2ccccc2)C1 ; field requested: GI50
Response: 99

Prompt: Query (compound): CN1CCN(C2CCN(c3ccc(Nc4nc(N[C@H]5C[C@H](O)C5)c(-c5cccc6[nH]ccc56)nc4C(N)=O)cc3)CC2)CC1 ; field requested: GI50
Response: 25

Prompt: Query (compound): CN1CCN(C2CCN(c3ccc(Nc4nc(NC5CCOCC5)c(-c5cncc6[nH]ccc56)nc4C(N)=O)cc3)CC2)CC1 ; field requested: GI50
Response: 35

Prompt: Query (compound): CC(C)Nc1nc(Nc2ccc(N3CCC(N4CCN(C)CC4)CC3)cc2)c(C(N)=O)nc1-c1ccncc1 ; field requested: GI50
Response: 21

Prompt: Query (compound): CN1CCN(C2CCN(c3ccc(Nc4nc(N[C@H]5C[C@H](O)C5)c(-c5ccccc5)nc4C(N)=O)cc3)CC2)CC1 ; field requested: GI50
Response: 26

Prompt: Query (compound): CN1CCN(C2CCN(c3ccc(Nc4nc(NC5CCOCC5)c(-c5cc[nH]n5)nc4C(N)=O)cc3C3CC3)CC2)CC1 ; field requested: GI50
Response: 36

Prompt: Query (compound): CN1CCN(C2CCN(c3ccc(Nc4nc(NC5CCOCC5)c(-c5cc[nH]n5)nc4C(N)=O)cc3)CC2)CC1 ; field requested: GI50
Response: 16

Prompt: Query (compound): Cc1cc(Nc2nc(NC3CCOCC3)c(-c3ccnc4[nH]ccc34)nc2C(N)=O)ccc1N1CCC(N2CCN(C)CC2)CC1 ; field requested: GI50
Response: 48

====

pIC50: −log10 of the molar value.
Value type: pIC50

Prompt: Record lookup: for EGFR (WT) (Homo sapiens), what pIC50 belongs to CC(C)Oc1nc(Nc2ccc(N3CCC(N4CCN(C)CC4)CC3)cc2)c(C(N)=O)nc1-c1ccccc1 ?
Response: < 6.52

Prompt: Record lookup: for EGFR (WT) (Homo sapiens), what pIC50 belongs to CN1CCC(Oc2nc(Nc3ccc(N4CCC(N5CCN(C)CC5)CC4)cc3)c(C(N)=O)nc2-c2ccccc2)CC1 ?
Response: < 7.00

Prompt: Record lookup: for EGFR (WT) (Homo sapiens), what pIC50 belongs to CN1CCN(C2CCN(c3ccc(Nc4nc(Nc5ccccc5)c(-c5ccccc5)nc4C(N)=O)cc3)CC2)CC1 ?
Response: < 7.00

Prompt: Record lookup: for EGFR (WT) (Homo sapiens), what pIC50 belongs to CC(C)Nc1nc(Nc2ccc(N3CCC(N4CCN(C)CC4)CC3)cc2)c(C(N)=O)nc1-c1ccccc1 ?
Response: < 6.52

====

# Target desc: Ba/F3 (EGFR^del19/T790M/C797S) triple-mutant cells (Homo sapiens, UniProt P00533, T790M/C797S, cells depend on it, form not given)
# Method notes: Antiproliferative activity against Ba/F3 (EGFR del19/T790M/C797S) triple-mutant cells, Cell Titer Glow
# Type: cell-based
# Conditions: three days after addition of compounds; read-out: Antiproliferative activity BaF3(EGFR^del19/T790M/C797S) IC50
# Method: Antiproliferative Activity of the Compounds Disclosed Herein Against Ba/F3 (EGFR^del19/T790M/C797S) Triple-Mutant Cells and A431 (EGFR WT) Cells • 3000 Ba/F3 cells carrying EGFR (del19/T790M/C797S) or 2000 A431 cells were seeded in a 384-well plate. […] Three days after the addition of the compounds, Cell Titer Glow was added to evaluate cell growth and the percentage cell growth inhibition by the compounds and the IC50 values were calculated.
Can you tell me GI50 for the items I'm about to list?
# unit: nM | format: bare number

Prompt: Query (molecule): CN1CCN(C2CCN(c3ccc(Nc4nc(N[C@H]5C[C@@H](O)C5)c(-c5ccccc5)nc4C(N)=O)cc3)CC2)CC1 [compound 31] ; field requested: GI50
Response: 65

Prompt: Query (molecule): CN1CCN(C2CCN(c3ccc(Nc4nc(N[C@@H]5CCC[C@@H]5O)c(-c5cccc6[nH]ccc56)nc4C(N)=O)cc3)CC2)CC1 [compound 529] ; field requested: GI50
Response: 18

Prompt: Query (molecule): CN1CCN(C2CCN(c3ccc(Nc4nc(NC5CCC(O)C5)c(-c5ccccc5)nc4C(N)=O)cc3)CC2)CC1 (centres unmarked) [compound 135] ; field requested: GI50
Response: 40

Prompt: Query (molecule): Cc1cc(Nc2nc(NC3CCOCC3)c(-c3ccncc3)nc2C(N)=O)ccc1N1CCN(C)CC1 [compound 148] ; field requested: GI50
Response: 68

Prompt: Query (molecule): Cc1cc(Nc2nc(NC3CCOCC3)c(-c3ccccn3)nc2C(N)=O)ccc1N1CCC(N2CCN(C)CC2)CC1 [compound 213] ; field requested: GI50
Response: 226

Prompt: Query (molecule): CN1CCN(c2ccc(Nc3nc(NC4CCOCC4)c(-c4ccncc4)nc3C(N)=O)cc2)CC1 [compound 118] ; field requested: GI50
Response: 82

Prompt: Query (molecule): CN1CCN(c2ccc(Nc3nc(NC4CCOCC4)c(-c4cc[nH]n4)nc3C(N)=O)cc2)CC1 [compound 174] ; field requested: GI50
Response: 51

Prompt: Query (molecule): CN1CCN(C2CCN(c3ccc(Nc4nc(NC5CC6(COC6)C5)c(-c5cccc6[nH]ccc56)nc4C(N)=O)cc3)CC2)CC1 [compound 527] ; field requested: GI50
Response: 4

Prompt: Query (molecule): Cc1cc(Nc2nc(NC3CCOCC3)c(-c3cccc4[nH]ccc34)nc2C(N)=O)ccc1N1CCC(N2CCN(C)CC2)CC1 [compound 513] ; field requested: GI50
Response: 57

Prompt: Query (molecule): CCc1cc(Nc2nc(NC3CCOCC3)c(-c3ccnc4[nH]ccc34)nc2C(N)=O)ccc1N1CCC(N2CCN(C)CC2)CC1 [compound 516] ; field requested: GI50
Response: 42

Prompt: Query (molecule): Cc1c[nH]nc1-c1nc(C(N)=O)c(Nc2ccc(N3CCC(N4CCN(C)CC4)CC3)cc2)nc1NC1CCOCC1 [compound 111] ; field requested: GI50
Response: 105

====

# Target desc: Ba/F3 (EGFR^del19/T790M/C797S) triple-mutant cells (Homo sapiens, UniProt P00533, T790M/C797S, cells depend on it, form not given)
# Method notes: Antiproliferative activity against Ba/F3 (EGFR del19/T790M/C797S) triple-mutant cells, Cell Titer Glow
# Format: cell-based
# Conditions: three days after addition of compounds; read-out: Antiproliferative activity BaF3(EGFR^del19/T790M/C797S) IC50
Value type: GI50 (nM)
# unit: nM | format: bare number

Prompt: Query (molecule): CN1CCN(C2CCN(c3ccc(Nc4nc(NC5CCOCC5)c(-c5cccc6[nH]cnc56)nc4C(N)=O)cc3)CC2)CC1 ; field requested: GI50
Response: 48

Prompt: Query (molecule): COc1cc(Nc2nc(NC3CCOCC3)c(-c3cc[nH]n3)nc2C(N)=O)ccc1N1CCC(N2CCN(C)CC2)CC1 ; field requested: GI50
Response: 57

Prompt: Query (molecule): COC1CCC(Nc2nc(Nc3ccc(N4CCC(N5CCN(C)CC5)CC4)cc3)c(C(N)=O)nc2-c2ccccc2)C1 (stereo not drawn) ; field requested: GI50
Response: 54

Prompt: Query (molecule): CN1CCN(C2CCN(c3ccc(Nc4nc(NC5CCOCC5)c(-c5cccc6[nH]ccc56)nc4C(N)=O)cc3)CC2)CC1 ; field requested: GI50
Response: 9

Prompt: Query (molecule): CN1CCN(Cc2ccc(Nc3nc(NC4CCOCC4)c(-c4ccncc4)nc3C(N)=O)cc2)CC1 ; field requested: GI50
Response: 119

Prompt: Query (molecule): CC(C)Oc1nc(Nc2ccc(N3CCC(N4CCN(C)CC4)CC3)cc2)c(C(N)=O)nc1-c1ccccc1 ; field requested: GI50
Response: 113

Prompt: Query (molecule): CN1CCN(C2CCN(c3ccc(Nc4nc(NC5CCOCC5)c(-c5cncs5)nc4C(N)=O)cc3)CC2)CC1 ; field requested: GI50
Response: 52

Prompt: Query (molecule): Cc1cc(Nc2nc(NC3CCOCC3)c(-c3cc[nH]n3)nc2C(N)=O)ccc1N1CCC(N2CCN(C)CC2)CC1 ; field requested: GI50
Response: 19

Prompt: Query (molecule): CN1CCN(C2CCN(c3ccc(Nc4nc(NC5CS(=O)(=O)C5)c(-c5ccccc5)nc4C(N)=O)cc3)CC2)CC1 ; field requested: GI50
Response: 248

Prompt: Query (molecule): COc1ccncc1-c1nc(C(N)=O)c(Nc2ccc(N3CCC(N4CCN(C)CC4)CC3)cc2)nc1NC1CCOCC1 ; field requested: GI50
Response: 233

Prompt: Query (molecule): CN1CCN(C2CCN(c3ccc(Nc4nc(NC5CCOCC5)c(-c5cccc(N(C)C)c5)nc4C(N)=O)cc3)CC2)CC1 ; field requested: GI50
Response: 21

Prompt: Query (molecule): CN1CCN(C2CCN(c3ccc(Nc4nc(NC5CCOCC5)c(-c5ccnc6[nH]ccc56)nc4C(N)=O)cc3)CC2)CC1 ; field requested: GI50
Response: 6

Prompt: Query (molecule): CN1CCN(C2CCN(c3ccc(Nc4nc(NC5CCOCC5)c(-c5cccnc5)nc4C(N)=O)cc3)CC2)CC1 ; field requested: GI50
Response: 48

Prompt: Query (molecule): CCc1cc(Nc2nc(NC3CCOCC3)c(-c3cc[nH]n3)nc2C(N)=O)ccc1N1CCC(N2CCN(C)CC2)CC1 ; field requested: GI50
Response: 18
